Tm,app of the 1:1 NHR + CHR mixture by entry:
# System: T1, NHR α-peptide 1 (HIV, N-terminus acetyl-capped)
# T1 construct: Forms a six-helix bundle (three NHR and three CHR helices) when mixed with CHR peptides; also called NHR peptide 1
# Measurement notes: CD at 222 nm, thermal unfolding, 20 µM total peptide in PBS
Where no end group is shown, it is not given here. [ ]: non-standard residue; d: D form. APC = trans-3-aminopyrrolidine-4-carboxylic acid; ACPC = trans-2-aminocyclopentanecarboxylic acid; β3hR = N=C(N)NCCC[C@H](N)CC(=O)O; β3hT = C[C@@H](O)[C@H](N)CC(=O)O; β3hE = N[C@@H](CCC(=O)O)CC(=O)O; β3hA = C[C@H](N)CC(=O)O
Report the value in ° C. with no unit label.

Worked set:
Protein | Reported property | Output unit | Observed
Ac-TTWEAWDRAIAEYA[ACPC]RIE[ACPC]LI[APC]AAQ[β3hE]QQ[β3hE]KNE[ACPC]AL[APC]EL-NH2 (not fully specified, Made from 7 by replacing two β3-hArg residues with APC) [chimeric CHR α/β-peptide 8] | Tm,app of the 1:1 NHR + CHR mixture | ° C. | 65
Ac-TTWEAWDRAIAEYAARIEALIRAAQEQQEKNEAALREL (also called T-2635; CHR α-peptide 3) [α-peptide 3] | Tm,app of the 1:1 NHR + CHR mixture | ° C. | 77
Ac-[β3hT]TWE[ACPC]WD[APC]AIA[β3hE]YA[ACPC]RIE[ACPC]LI[APC]AAQ[β3hE]QQ[β3hE]KNE[ACPC]AL[APC]EL-NH2 (Made from 9 by replacing the three β3-hArg residues with APC; also called foldamer 10) [α/β-peptide 10] | Tm,app of the 1:1 NHR + CHR mixture | ° C. | 55

Input line: Could you share which Tm,app of the 1:1 NHR + CHR mixture value was measured for Ac-TTWEAWDRAIAEYAARIEALI[β3hR]AAQ[β3hE]QQ[β3hE]KNE[β3hA]AL[β3hR]EL (Chimera of α-peptide 3 and α/β-peptide 4; also called oligomer 5) [(α+α/β)-peptide 5] ?
Output line: 67
